system: AsPC-1 cells; experiment: AsPC-1 CTG proliferation assay (120 h) (pancreatic cancer, G12D); assay type: cell-based; conditions: Homo sapiens, ASPC1
QUANTITY: IC50 (µM)

C[C@H](Oc1cc(-n2ccncc2=O)nc(-c2noc3c2CCC[C@@]32CCCc3sc(N)c(C#N)c32)n1)[C@@H]1CCCN1C
6.52
C[C@H](Oc1cc(-c2ccn(C[C@@H](C)O)n2)nc(-c2noc3c2CCC[C@@]32CCCc3sc(N)c(C#N)c32)n1)[C@@H]1CCCN1C
1.66

[I] C[C@H](Oc1cc(-c2cnn(C)n2)nc(-c2noc3c2CCC[C@@]32CCCc3sc(N)c(C#N)c32)n1)[C@@H]1C[C@@H](F)CN1C
[II] CO[C@@H]1C[C@@H]([C@H](C)Oc2cc(-c3ccn(C)n3)nc(-c3noc4c3CCC[C@@]43CCCc4sc(N)c(C#N)c43)n2)N(C)C1
[III] C[C@H](Oc1cc(-n2cc3c(n2)CNC3)nc(-c2noc3c2CCC[C@@]32CCCc3sc(N)c(C#N)c32)n1)[C@@H]1CCCN1C
[IV] CO[C@@H]1C[C@@H]([C@H](C)Oc2cc(-c3cnn(C)n3)nc(-c3onc4c3CCC[C@@]43CCCc4sc(N)c(C#N)c43)n2)N(C)C1
[V] C[C@H](Oc1cc(N2CCNC3(CC3)C2)nc(-c2onc3c2CCC[C@@]32CCCc3sc(N)c(C#N)c32)n1)[C@@H]1CCCN1C
QUERY: Rank descending by IC50. Please respond with the labels ordered as the question requires.
RESULT: IV, I, II, III, V
(IV: 9.85 µM, I: 5.07 µM, II: 2.26 µM, III: 0.778 µM, V: 0.086 µM)

[P] C[C@H](Oc1cc(N2CCC[C@@H](O)C2)nc(-c2noc3c2CCC[C@@]32CCCc3sc(N)c(C#N)c32)n1)[C@@H]1CCCN1C
[Q] C[C@H](Oc1cc(-n2ccc(-c3cn(C4CCOCC4)nn3)n2)nc(-c2noc3c2CCC[C@@]32CCCc3sc(N)c(C#N)c32)n1)[C@@H]1CCCN1C
QUERY: Could you please tell me which of these two has the higher IC50: P or Q ? Refer to your chosen entry by its label in the reply.
RESULT: P
(P: 2.24 µM, Q: 0.21 µM)

---

Target: KRAS (WT)::SOS1 (Homo sapiens (Human), UniProt P01116, C118S)
Sequence (P01116 other isoform, or with tags, fused parts or gaps C118S): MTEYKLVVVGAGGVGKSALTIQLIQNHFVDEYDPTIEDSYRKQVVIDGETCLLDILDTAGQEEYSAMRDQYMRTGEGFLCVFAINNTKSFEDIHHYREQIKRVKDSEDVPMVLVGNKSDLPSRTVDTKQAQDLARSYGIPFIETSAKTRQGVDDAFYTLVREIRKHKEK
Assay: KRAS::SOS1 AlphaScreen binding assay, KRAS WT
Method: This assay can be used to examine the potency with which compounds according to the invention binding to (mutated) KRAS inhibit the protein-protein interaction between SOS1 and (mutated) KRAS e.g., KRAS WT, KRAS G12C, KRAS G12D, KRAS G12V, KRAS G13D. […] Plates are kept at room temperature in a darkened incubator. After an additional 60 minutes incubation time the signal is measured in a PerkinElmer Envision HTS Multilabel Reader using the AlphaScreen specs from PerkinElmer. […]
pIC50: −log10 of the molar value.
QUANTITY: pIC50

[P] C[C@H](Oc1cc(-c2cccc(C(N)=O)c2)nc(-c2noc3c2CCC[C@@]32CCCc3sc(N)c(C#N)c32)n1)[C@@H]1CCCN1C
[Q] C[C@H](Oc1nc(-c2noc3c2CCC[C@@]32CCCc3sc(N)c(C#N)c32)nc(N2C[C@H](C)NC3(CC3)C2)c1F)[C@@H]1C[C@@H](F)CN1C
[R] C[C@H](Oc1cc(-n2ccc(C(=O)NC3COC3)n2)nc(-c2noc3c2CCC[C@@]32CCCc3sc(N)c(C#N)c32)n1)[C@@H]1CCCN1C
QUERY: Rank order required: pIC50, descending. Returns: the labels listed in the requested order.
RESULT: Q, P, R
(Q: 8.30, P: 8.10, R: 7.80)

[I] C[C@H](Oc1cc(-n2cc(-c3cncs3)nn2)nc(-c2noc3c2CCC[C@@]32CCCc3sc(N)c(C#N)c32)n1)[C@@H]1CCCN1C
[II] C[C@H](Oc1cc(N2CCOC3(COC3)C2)nc(-c2noc3c2CCC[C@@]32CCCc3sc(N)c(C#N)c32)n1)[C@@H]1CCCN1C
QUERY: For the two items I and II , which reports the higher pIC50 value? Answer by quoting the chosen item's label.
RESULT: II
(II: 8.40, I: 8.05)
